# protocol: in vitro
# experimentalSetup: human
# Description: All compounds synthesised in this study were assessed for their minimum inhibitory concentrations (MIC, mg/L) by broth microdilution assay against five antibiotic-sensitive and resistant ATCC reference strains covering the Gram-negative ESKAPE pathogens (Escherichia coli, Klebsiella pneumoniae, A. baumannii, and P. aeruginosa) (Table 1, Table 2 and Table 3). Staphylococcus aureus was also included as a representative Gram-positive bacterial strain. […]
*1 amine or outer side, *2 acyl side, *3 side chain or, on linkers, in order; H or OH if unused. Where a SMILES comes first, the peptide text is derived from it. Bridges are numbered along the chain shown (N, C = ends). [ ]: non-standard residue; d: D form. The star is where a group is joined. NH(2-ClPh) = Clc1ccccc1N*; dDab = NCC[C@@H](N)C(=O)O; hSer = N[C@@H](CCO)C(=O)O; Octanoyl = CCCCCCCC(=O)*; Dab = NCC[C@H](N)C(=O)O; CO = O=C([*:1])[*:2]
Kindly state CC50 at 24 h for each of the entries shown.
Kindly provide the numeric value in µM only, without the unit symbol.

Which CC50 at 24 h is listed for CC(C)C[C@@H]1NC(=O)[C@@H](Cc2ccccc2)NC(=O)[C@H](CCN)NC(=O)[C@@H](NC(=O)[C@H](CCN)NC(=O)[C@@H](NC(=O)Nc2ccccc2Cl)[C@@H](C)O)CCNC(=O)[C@H]([C@@H](C)O)NC(=O)[C@H](CCN)NC(=O)[C@H](CCN)NC1=O [Compound 15] ({NH(2-ClPh)-CO}-T[Dab][Dab][Dab][dF]L[Dab][Dab]T; lactam 3-C) ? 206

Entry to check: CCCCCCCC(=O)N[C@H](C(=O)NCC(=O)N[C@H]1CCNC(=O)[C@H]([C@@H](C)O)NC(=O)[C@H](CCN)NC(=O)[C@H](CCN)NC(=O)[C@H](CC(C)C)NC(=O)[C@@H](Cc2ccccc2)NC(=O)[C@H](CCN)NC1=O)[C@@H](C)O [Compound 49] (Octanoyl-TG[Dab][Dab][dF]L[Dab][Dab]T; lactam 3-C) 163

Entry to check: CCCCCCCC(=O)N[C@@H](CCO)C(=O)N[C@H](CCN)C(=O)N[C@H]1CCNC(=O)[C@H]([C@@H](C)O)NC(=O)[C@H](CCN)NC(=O)[C@H](CCN)NC(=O)[C@H](CC(C)C)NC(=O)[C@@H](Cc2ccccc2)NC(=O)[C@H](CCN)NC1=O [Compound 31] (Octanoyl-[hSer][dDab][Dab][Dab][dF]L[Dab][Dab]T; lactam 3-C) 181

Entry to check: CCCCCCCC(=O)N[C@@H](CCN)C(=O)N[C@H](C(=O)N[C@H](CO)C(=O)N[C@H]1CCNC(=O)[C@H]([C@@H](C)O)NC(=O)[C@H](CCN)NC(=O)[C@H](CCN)NC(=O)[C@H](CC(C)C)NC(=O)[C@@H](Cc2ccccc2)NC(=O)[C@H](CCN)NC1=O)[C@@H](C)O [Compound 34] (Octanoyl-[Dab]T[dS][Dab][Dab][dF]L[Dab][Dab]T; lactam 4-C) 139

Entry to check: CCCCCCCC(=O)N[C@H](C(=O)N[C@@H](CCN)C(=O)N[C@H]1CCCCNC(=O)[C@H]([C@@H](C)O)NC(=O)[C@H](CCN)NC(=O)[C@H](CCN)NC(=O)[C@H](CC(C)C)NC(=O)[C@@H](Cc2ccccc2)NC(=O)[C@H](CCN)NC1=O)[C@@H](C)O [Compound 18] (Octanoyl-T[Dab]K[Dab][dF]L[Dab][Dab]T; lactam 3-C) 88
